molecular target: acetylcholine receptor; assay: SPR, receptor immobilized, peptide 10 uM
reportedProperty: Binding affinity (RU)

[
  {
    "binder": "KVYLKR [6mer-2-190]",
    "unitSymbol": "RU",
    "Binding affinity": 148
  },
  {
    "binder": "RQLLKR [6mer-2-191]",
    "unitSymbol": "RU",
    "Binding affinity": 154
  },
  {
    "binder": "KGRLKK [6mer-2-140]",
    "unitSymbol": "RU",
    "Binding affinity": 142
  },
  {
    "binder": "RQYTKR [6mer-2-147]",
    "unitSymbol": "RU",
    "Binding affinity": 133
  }
]
